Listing of recorded binding signal by entry.
Biological target: T1, UNK ZnF1-3 (human, UniProt Q9C0B0 31-174)
T1 sequence: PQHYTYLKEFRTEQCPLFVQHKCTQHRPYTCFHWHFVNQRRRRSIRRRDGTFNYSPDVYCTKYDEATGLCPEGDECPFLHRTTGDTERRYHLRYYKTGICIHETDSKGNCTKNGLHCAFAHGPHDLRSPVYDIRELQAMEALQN
Test: nsRBNS (natural sequence RNA bind-n-seq); RBNS binding buffer (assumed for nsRBNS): 25 mM Tris pH 7.5, 150 mM KCl, 3 mM MgCl2, 0.01% Triton X-100, 500 ug/ml BSA, 20 U/ml SUPERase-In, 4 C; UNK is unkempt and MSI1 is Musashi-1; names of the RNAs are library labels; protein concentration not given here; high values mean tight binding
Whole data set: some 24,000 sequences, median “enrichment r” near 0.99, cut for the highest 2% near 3.7. Shown is part of a subset that was picked to be rich in the highest values.
State the answer as a number, implicitly in enrichment R.

Solved cases (3 shown):
binder	reported_property	readout_value
chr12:48362563:48362564:+_ENSG00000134291_ENST00000256686|hu_hu|hu_hu_hu_mus_False|68_68 (ssRNA) RNA: GGGAGUUCUACAGUCCGACGAUCUCCGUCAAGCCCUUCGAUAGACCCUUGCGGGGGAAACUGUAAUAAUUCUAACUGGGGAAGGAAAAGAAACGCCAAAAACUUUCCAAAAAGCGGGGGUGGGGUGAGGCGGGAGGGGGAGGUCAACAGAGGAUUGAGCAUCA	binding signal	4.07
chr2:49628383:49628384:+_ENSMUSG00000026764_ENSMUST00000028102|mus_mus|FALSE|FALSE (ssRNA) RNA: GGGAGUUCUACAGUCCGACGAUCUUGGUACUGACGGGGUUUGCAGACUUGCCCUGCAAAGGACCCCUCCAUCAGACUCCAAUAGCAGCCAACAGUGGCAACAACAUGAAACAAAGUGAACACAGGUAAACACAAAAUCAUCUUCAACAGAGGAUUGAGCAUCA	binding signal	0.994
chr1:46159212:46159213:+_ENSG00000159596_ENST00000372025|hu_mus|hu_hu_hu_mus_True|1_28 (ssRNA) RNA: GGGAGUUCUACAGUCCGACGAUCUCUGAUCCCUCCCAAGAAAGCUAGGAAACCGGCUCCAUAAGCCAUCUGAGUGAAAGCUAGGACGGGGAUAUAAGACUUUGUUAUCAGCAUGACAAGUGGGGGAGCAGUAAAGGGGAUUAGCAACAGAGGAUUGAGCAUCA	binding signal	3.95

We now examine a further binder.
Task item: For the binder shown here, chr12:51141157:51141158:+_ENSG00000066084_ENST00000301180|hu_mus|FALSE|FALSE (ssRNA) RNA: GGGAGUUCUACAGUCCGACGAUCUCAAAGAAAAGCAACAGAAAAUAAAAAAAAAAAAAGAAGUAGUCAUUACCAGAAGGAGGAAAAGACUAGAAGCCUGGGCAAGGCAUGAAGGUGUCUGCUGCAAUUUCAGUACUCGGGACACAACAGAGGAUUGAGCAUCA , give the reported binding signal.
Reply: 4.07
